target: Androgen receptor (Homo sapiens) (UniProt P10275); test: qHTS assay to identify small molecule antagonists of the androgen receptor (AR) signaling pathway (AID 743035); details: HEK293 AR-UAS-bla, R1881-stimulated, beta-lactamase FRET, 16 h; series mostly up to 58.5 µM; note: potency is the fitted concentration of half-maximal effect
Sequence (P10275 whole entry, looked up): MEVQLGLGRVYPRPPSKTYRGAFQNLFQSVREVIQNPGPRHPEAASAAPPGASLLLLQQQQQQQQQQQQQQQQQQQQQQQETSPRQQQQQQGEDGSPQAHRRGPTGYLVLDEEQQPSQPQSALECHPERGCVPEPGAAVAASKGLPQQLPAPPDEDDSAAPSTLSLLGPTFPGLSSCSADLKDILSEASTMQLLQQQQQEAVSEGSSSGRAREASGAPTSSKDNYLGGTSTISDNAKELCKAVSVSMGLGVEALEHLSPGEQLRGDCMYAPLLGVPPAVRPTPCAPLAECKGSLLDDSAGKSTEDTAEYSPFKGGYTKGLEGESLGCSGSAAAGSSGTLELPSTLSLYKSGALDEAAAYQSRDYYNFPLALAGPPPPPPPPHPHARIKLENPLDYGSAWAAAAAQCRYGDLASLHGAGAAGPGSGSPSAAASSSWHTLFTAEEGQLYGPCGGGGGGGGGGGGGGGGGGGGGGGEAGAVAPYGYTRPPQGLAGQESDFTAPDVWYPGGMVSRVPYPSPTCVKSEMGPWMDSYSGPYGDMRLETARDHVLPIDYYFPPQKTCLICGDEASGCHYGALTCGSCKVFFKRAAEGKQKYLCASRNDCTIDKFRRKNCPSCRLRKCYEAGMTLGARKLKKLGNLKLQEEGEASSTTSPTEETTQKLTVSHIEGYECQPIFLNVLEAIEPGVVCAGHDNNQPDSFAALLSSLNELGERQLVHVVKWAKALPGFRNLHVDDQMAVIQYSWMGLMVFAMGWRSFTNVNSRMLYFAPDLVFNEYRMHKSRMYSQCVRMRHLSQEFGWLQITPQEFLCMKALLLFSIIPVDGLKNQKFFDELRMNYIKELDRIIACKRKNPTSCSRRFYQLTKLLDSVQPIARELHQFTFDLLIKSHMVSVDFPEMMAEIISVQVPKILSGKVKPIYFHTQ
Results filed as inconclusive are left out. Calls of active or inactive are those of the source. Calls come from the whole dose curve; as a rule, active = well fitted inhibition curve with a large enough effect in the signal ratio in the repeat runs (not every such curve was filed as active); inconclusive = weak or mixed curves, or effect the other way; inactive = no such curve, though single readings can be large or run the other way; the % refers to the signal ratio.
measured metric: Potency

Recorded results for 5 compounds are shown here.
>>> obs_value("CCC(C)N(C)C(=O)c1cc2ccccc2c(-c2ccccc2Cl)n1 (stereo not drawn)")
"28.2 µM (active)"
>>> obs_value("CC(C(=O)O)c1ccc(C(=O)c2ccccc2)s1 (stereo not drawn)")
"inactive"
>>> obs_value("O=C(O)[C@@H]1[C@H]2C[C@H]3c4[nH]c5ccccc5c4CCN3C[C@@H]2CC[C@@H]1O")
"inactive"
>>> obs_value("O=C(O)Cc1sc(-c2ccccc2)nc1-c1ccc(Cl)cc1")
"inactive"
>>> obs_value("CCCCCCCC/C=C\\CCCCCCCC(N)=O")
"inactive"

get_value(item= "NC(=S)N/N=C/c1cccnc1" , readout=Potency) returns inactive

* * *

assay: qHTS assay to identify small molecule agonists of the androgen receptor (AR) signaling pathway in the presence of an antagonist - cell viability counter screen (AID 1259379); details: MDA-kb2 viability, CellTiter-Fluor, 16 h; series mostly up to 92.4 µM; note: nearly all actives have a fitted effect of over 25% in size
Records with an inconclusive call do not appear. Activity calls are given as the source filed them. Calls come from the whole dose curve; as a rule, active = well fitted cell-killing curve with a large enough effect in the repeat runs; inconclusive = weak or mixed curves, or effect the other way; inactive = flat fitted curve, though single readings scatter.
Outcomes you can answer with include only these: active, inactive

For orientation, consider the following solved cases.
>>> label("CC(C)c1cccc(C(C)C)c1NC(=O)NS(=O)(=O)c1cc(C(C)(C)O)co1")
"inactive"
>>> label("N#Cc1c(F)cccc1F")
"inactive"
>>> label("O=C(O)Cc1sc(-c2ccccc2)nc1-c1ccc(Cl)cc1")
"inactive"

Task: Test call, this compound: "O=C(O)C(c1ccc(Cl)cc1)c1ccc(Cl)cc1"
Output: inactive

Task: Per the assay record, what outcome was assigned to "CCCC(C)C" ?
Output: inactive

Task: Tell me the recorded outcome of this test for "O=C(O)Cn1c(C(=O)Nc2nc(-c3ccccc3Cl)cs2)cc2ccccc21" .
Output: inactive

Task: Per the records of this test, what outcome belongs to "CC(C)(C)c1cc(O)c(C(C)(C)C)cc1O" ?
Output: active

Task: Could you please tell me the result logged for "O=C(O)/C=C/c1cnc[nH]1" in this assay?
Output: inactive

Task: Recorded call for "O=c1c2ccccc2nnn1CCl" ?
Output: inactive

Task: Test call for this compound, please: CC(C)=CCCC(C)CC=O (centres undefined)
Output: inactive

Task: Please let me know the test result on file for "CC(=O)Nc1ccc(/C=N/NC(N)=S)cc1" .
Output: inactive

Task: Field: outcome | Entry: "S=C(S)NCCNC(=S)S"
Output: inactive

Task: // param item: "CC1=CC(=O)/C(=C(/C)O)C(=O)O1" ; yields the recorded call
Output: inactive

Task: What outcome does the record of this test show for "O=C1CCCCCO1" ?
Output: inactive

* * *

test: qHTS assay to identify small molecule antagonists of the thyroid receptor (TR) signaling pathway - cell viability counter screen (AID 743064); details: GH3.TRE-Luc viability, CellTiter-Fluor, 24 h; series mostly up to 70.3 µM; note: nearly all actives have a fitted effect of over 50% in size
Records with an inconclusive call do not appear. The source made the active and inactive calls. Calls follow the shape of the dose curve; as a rule, active = well fitted cell-killing curve with a large enough effect in the repeat runs; inconclusive = weak or mixed curves, or effect the other way; inactive = no such curve, though single readings can be large or run the other way.
# valid calls are true (1) = active, false (0) = inactive; nothing else

For orientation, consider the following solved cases.
>>> label("C=CC(=O)OCC(C)OCC(C)OCC(C)OC(=O)C=C (configuration not stated)")
"true (1)"
>>> label("CC(=O)SCc1ccco1")
"false (0)"
>>> label("CCCCOC(O)CC (configuration not stated)")
"false (0)"

Task: Short answer needed: outcome of this test for "ClC(Cl)(Cl)c1ccc(C(Cl)(Cl)Cl)cc1" ?
Output: false (0)

Task: What did the test return for CCc1nn(C2CCCCC2)c2cc(C3(C#N)CCC(C(=O)O)CC3)ccc12 (configuration not stated) ?
Output: true (1)

Task: Please let me know the test result on file for "CCCC[C@H]1CN(CC2CCOCC2)C(=O)OC12CCN(C1(C)CCN(C(=O)c3c(C)ncnc3C)CC1)CC2" .
Output: false (0)

Task: Recorded call for "C=CC(=O)OCCOC(=O)CCC(=O)O" ?
Output: false (0)

Data origin: PubChem BioAssay (Tox21)
